Provenance of the data: patent US20230270704A1

Test system: brain tissues
Assay: Alzheimer's disease study in HFD + icv STZ rats, histopathology (HE) of brain tissues
Format: in vivo, Sprague-Dawley rats
Settings: brain tissues; HFD 5 weeks + STZ 3 mg/kg icv; substances once daily by oral gavage; score
reported.property: necrosis in neurons

NC(CO)C(=O)O (stereo not shown) : ++ (mild (++))
NC(=O)c1ccc[n+](C2OC(CO)C(O)C2O)c1.[Cl-] (stereo not shown) : ++ (mild (++))
C[N+](C)(C)CC(O)CC(=O)O.C[N+](C)(C)CC(O)CC(=O)O.O=C([O-])C(O)C(O)C(=O)[O-] (stereo not shown) : ++ (mild (++))
